test system: Methicillin-resistant Staphylococcus aureus (MRSA); experiment: In vitro antimicrobial activity against MRSA; assay type: cell-based; conditions: Staphylococcus aureus, MRSA; test conc. 200-8 μg/mL (extracts), 100-4 or 10-0.4 μg/mL (drugs); read-out: MRS IC50
PARAMETER: IC50 (µg/mL)

1. COc1cccc(OC)c1C(=O)N[C@@H]1C(=O)N2[C@@H]1SC(C)(C)[C@@H]2C(=O)O [Methicillin]
19
2. CO/N=C(\C(=O)N[C@@H]1C(=O)N2C(C(=O)O)=C(COC(C)=O)CS[C@H]12)c1csc(N)n1 [Cefotaxime]
14.8
3. C[C@@H](O)[C@H]1C(=O)N2C(C(=O)O)=C(S[C@@H]3CN[C@H](C(=O)N(C)C)C3)[C@H](C)[C@H]12 [Meropenem]
2.75

###

tested on: Cryptococcus neoformans; experiment: In vitro antimicrobial activity against Cryptococcus neoformans; type: cell-based; details: Table 5; extracts tested at 8-200 μg/mL
PARAMETER: C. neoformans IC50

1) CN[C@H](CC(C)C)C(=O)N[C@H]1C(=O)N[C@@H](CC(N)=O)C(=O)N[C@H]2C(=O)N[C@H]3C(=O)N[C@H](C(=O)N[C@H](C(=O)O)c4cc(O)cc(O)c4-c4cc3ccc4O)[C@H](O)c3ccc(c(Cl)c3)Oc3cc2cc(c3O[C@@H]2O[C@H](CO)[C@@H](O)[C@H](O)[C@H]2O[C@H]2C[C@](C)(N)[C@H](O)[C@H](C)O2)Oc2ccc(cc2Cl)[C@H]1O
>100 µg/mL
2) C[C@@H]1[C@H](O)[C@@H](C)/C=C/C=C/C=C/C=C/C=C/C=C/C=C/[C@H](O[C@@H]2O[C@H](C)[C@@H](O)[C@H](N)[C@@H]2O)C[C@@H]2O[C@](O)(C[C@@H](O)C[C@@H](O)[C@H](O)CC[C@@H](O)C[C@@H](O)CC(=O)O[C@H]1C)C[C@H](O)[C@H]2C(=O)O
0.24 µg/mL
3) COc1cccc(OC)c1C(=O)N[C@@H]1C(=O)N2[C@@H]1SC(C)(C)[C@@H]2C(=O)O
>100 µg/mL
4) CO/N=C(\C(=O)N[C@@H]1C(=O)N2C(C(=O)O)=C(COC(C)=O)CS[C@H]12)c1csc(N)n1
>100 µg/mL
5) O=C(O)c1cn(C2CC2)c2cc(N3CCNCC3)c(F)cc2c1=O
>10 µg/mL
6) C[C@@H](O)[C@H]1C(=O)N2C(C(=O)O)=C(S[C@@H]3CN[C@H](C(=O)N(C)C)C3)[C@H](C)[C@H]12
>100 µg/mL

###

tested on: Klebsiella pneumoniae; test: In vitro antimicrobial activity against Klebsiella pneumoniae; format: cell-based; details: Klebsiella pneumoniae; test conc. 200-8 μg/mL (extracts), 100-4 or 10-0.4 μg/mL (drugs); read-out: K pneumoniae IC50
IC50 listing for selected compounds.
PARAMETER: IC50

1. CO/N=C(\C(=O)N[C@@H]1C(=O)N2C(C(=O)O)=C(COC(C)=O)CS[C@H]12)c1csc(N)n1 [Cefotaxime]
> 100 µg/mL
2. C[C@@H](O)[C@H]1C(=O)N2C(C(=O)O)=C(S[C@@H]3CN[C@H](C(=O)N(C)C)C3)[C@H](C)[C@H]12 [Meropenem]
18.1 µg/mL
3. O=C(O)c1cn(C2CC2)c2cc(N3CCNCC3)c(F)cc2c1=O [Ciprofloxacin]
> 10 µg/mL
4. OC(Cn1cncn1)(Cn1cncn1)c1ccc(F)cc1F [Fluconazole]
> 100 µg/mL
5. COc1cccc(OC)c1C(=O)N[C@@H]1C(=O)N2[C@@H]1SC(C)(C)[C@@H]2C(=O)O [Methicillin]
> 100 µg/mL

All values here come from patent US12274732B2.
